Test system: BDF1 mice, P388 leukemia ip, median survival T/C
Assay: NCI In Vivo Anticancer Drug Screen. Data for tumor model P388 Leukemia (intraperitoneal) in B6D2F1 (BDF1) mice
Settings: endpoint: median survival time; dose: 6.25 mg/kg/injection; schedule: Q04DX003 (ip); vehicle: saline; higher = longer survival
Toxic doses and inconclusive results are not listed.
Readout name: T/C

• Nc1cc(N)cc([N+](=O)[O-])c1 = 100 % of control
• COc1cc2ccc3c(c2cc1OC)C(=O)CNC3C (configuration not stated) = 100 % of control
• O=[N+]([O-])C(CO)(CO)CC(F)(F)F = 100 % of control
• C[P+](c1ccc(Cl)cc1)(c1ccc(Cl)cc1)c1ccc(Cl)cc1 = 100 % of control
• CC(=O)CC(c1ccc2c(c1)OCO2)c1c(O)c2ccccc2oc1=O (configuration not stated) = 89 % of control

Tell me the measured T/C of CN1C=c2c3c(ccc2=C2C=CC4C=C5OCOC5=CC4=C21)OCO3 (configuration not stated) , please.
100 % of control

Now this one: N#CN1CC(C(=O)N2CCCCC2)C=C2c3cccc4[nH]cc(c34)CC21 (configuration not stated)
114 % of control

* * *

Tested on: BDF1 mice, P388 leukemia ip, median survival T/C
Experiment: NCI In Vivo Anticancer Drug Screen. Data for tumor model P388 Leukemia (intraperitoneal) in B6D2F1 (BDF1) mice
Conditions: endpoint: median survival time; dose: 100.0 mg/kg/injection; schedule: Q01DX009 (ip); vehicle: Klucel (hydroxypropylcellulose) (HPC); higher = longer survival
Toxic doses and inconclusive results are not listed.
Attribute: T/C

Here are 3 compounds together with their reported answers.
* CC1C(N2CCOCC2)CS1(=O)=O (stereo not given) | 100 % of control
* COc1ccc(OC)c(NC(=O)Sc2c(Cl)c(Cl)nc(Cl)c2Cl)c1 | 124 % of control
* O=C(Nc1ccc(Nc2ccncc2)cc1)c1ccc(Nc2ccnc3ccc([N+](=O)[O-])cc23)cc1 | 90 % of control

I am curious: what T/C value has been reported for "O=C(OCC#CC#CCOC(=O)c1ccccc1)c1ccccc1" ?
104 % of control

Another compound to look at: "O/N=C\CCC/C=N/O"
91 % of control

* * *

System: BDF1 mice, P388 leukemia ip, median survival T/C
Experiment: NCI In Vivo Anticancer Drug Screen. Data for tumor model P388 Leukemia (intraperitoneal) in B6D2F1 (BDF1) mice
Conditions: endpoint: median survival time; dose: 400.0 mg/kg/injection; schedule: Q04DX003 (ip); vehicle: saline with Tween-80; higher = longer survival
Toxic doses and inconclusive results are not listed.
Below, each of the molecules is paired with its reported T/C value.

* COC(=O)CNC(=O)C(Cc1ccc(OCc2ccccc2)cc1)NC(=O)OC(C)(C)C (stereo not given) | 120 % of control

T/C lookup needed for "CCCc1nn2c(-c3ccccc3)nnc2o1" , thanks.
110 % of control

* * *

Tested on: BDF1 mice, P388 leukemia ip, median survival T/C
Assay: NCI In Vivo Anticancer Drug Screen. Data for tumor model P388 Leukemia (intraperitoneal) in B6D2F1 (BDF1) mice
Details: endpoint: median survival time; dose: 400.0 mg/kg/injection; schedule: Q01DX001 (ip); vehicle: saline with Tween-80; higher = longer survival
Toxic doses and inconclusive results are not listed.
Known T/C of a selection of compounds

- O=C(OC1CC2CCCC21)c1cc([N+](=O)[O-])cc([N+](=O)[O-])c1 (configuration not stated): 99 % of control
- CC(O)(CCCCCCCC(C)(O)c1ccccc1)c1ccccc1 (configuration not stated): 100 % of control
- O=C1c2ccccc2CC1(Cl)Cl: 101 % of control
- CN=C(c1ccccc1)C1(O)CC2CCC1C2 (configuration not stated): 100 % of control

Form field - read-out: T/C; system: BDF1 mice, P388 leukemia ip, median survival T/C; submitted item: "Nc1ccccc1-c1ccc([N+](=O)[O-])cc1"
91 % of control

Quick one: CC(CC(C)(C)C)C(=O)CCC(C)(C)C (configuration not stated)
109 % of control

Same lookup for CC1(C)C(N2CCOCC2)C(c2ccccc2)S1(=O)=O (configuration not stated) , please.
95 % of control

Follow-up item: "O=C(O)c1ccccc1C(=O)OC1=CS(=O)(=O)CC1"
110 % of control

Quick one: CCOC(=O)C(N=C=S)C(C)CC (configuration not stated)
118 % of control

* * *

Tested on: BDF1 mice, P388 leukemia ip, median survival T/C
Assay: NCI In Vivo Anticancer Drug Screen. Data for tumor model P388 Leukemia (intraperitoneal) in B6D2F1 (BDF1) mice
Conditions: endpoint: median survival time; dose: 50.0 mg/kg/injection; schedule: Q04DX003 (ip); vehicle: Klucel (hydroxypropylcellulose) (HPC); higher = longer survival
Toxic doses and inconclusive results are not listed.
Readout name: T/C

Reference set, count: 3
* NN(C(=O)c1ccccc1)c1ccccc1 | 104 % of control
* Cc1c(C(=O)O)nc(CC(O)C(Cl)(Cl)Cl)[nH]c1=O (stereo unspecified) | 97 % of control
* CC(C)Cc1c(N)nc(=S)[nH]c1C(=O)O | 89 % of control

What does the data say about its T/C? Entry: CC(C)C1C(=O)N2CCCC2C2(O)OC(NC(=O)C3C=C4c5cccc6[nH]cc(c56)CC4N(C)C3)(C(C)C)C(=O)N12 (stereo unspecified)
91 % of control

Now try "O=c1ccc(=O)c2c(=O)c3ccccc3c(=O)c1=2" .
95 % of control

Ok, now "O=C(O)CCCCCNC(=O)c1ccccc1"
118 % of control

* * *

Test system: BDF1 mice, P388 leukemia ip, median survival T/C
Test: NCI In Vivo Anticancer Drug Screen. Data for tumor model P388 Leukemia (intraperitoneal) in B6D2F1 (BDF1) mice
Conditions: endpoint: median survival time; dose: 12.5 mg/kg/injection; schedule: Q04DX003 (ip); vehicle: saline; higher = longer survival
Description: The antitumor activity of compounds was measured in mice bearing transplantable tumors. Survival or tumor size were measured and the results are expressed as the measurement made in the treated group (T) divided by the measurement made in the vehicle treated control group (C). The tumor model used in this assay is P388 Leukemia (intraperitoneal) in B6D2F1 (BDF1) mice
Inconclusive results and toxic doses are left out.
Readout name: T/C

Consider the reported T/C for these molecules:
* CN=C(N)c1ccc(N=C(N)c2ccc(-c3ccc(C(N)=Nc4ccc(C(N)=NC)cc4)cc3)cc2)cc1 | 115 % of control
* C[n+]1cccc2ccccc21 | 104 % of control
* C[P+](c1ccc(Cl)cc1)(c1ccc(Cl)cc1)c1ccc(Cl)cc1 | 104 % of control

What value of T/C has been recorded for this entry: "COc1ccc(-c2csc(=[N+]3CCCCC3)s2)cc1"
105 % of control

Now the molecule CC(=O)CC(c1ccc2c(c1)OCO2)c1c(O)c2ccccc2oc1=O (stereo unspecified)
102 % of control

Do the same for "CS(=O)(=O)OCCN1CCC2(CC1)SSC1(CCN(CCOS(C)(=O)=O)CC1)S2" please
122 % of control

* * *

Test system: BDF1 mice, P388 leukemia ip, median survival T/C
Assay: NCI In Vivo Anticancer Drug Screen. Data for tumor model P388 Leukemia (intraperitoneal) in B6D2F1 (BDF1) mice
Conditions: endpoint: median survival time; dose: 100.0 mg/kg/injection; schedule: Q01DX009 (ip); vehicle: Klucel (hydroxypropylcellulose) (HPC)
Inconclusive results and toxic doses are left out. The calls were made as follows: active = survival T/C of 150% or more; inactive = T/C below 125% in these data.
Outcomes you can answer with include only these: active, inactive

Solved cases below.
• C1=CCC(C2OCC3(CO2)COC(C2CC=CCC2)OC3)CC1 (configuration not stated) = inactive
• O=C1NC(c2ccc3ccccc3n2)Nc2ccccc21 (configuration not stated) = inactive
• O=[N+]([O-])c1ccc2[nH]c3c(c2c1)CSCC3 = inactive
• O=C1NCC(COc2ccc(Cl)cc2)O1 (configuration not stated) = inactive
• CC1(c2cccc3ccccc23)NC(=O)c2ccccc2N1 (configuration not stated) = inactive

Called result for "CSc1nc(N)cc(NC(=O)CCl)n1"
inactive

Another: "COc1cc2c(ccc3c4cc(OC)c(OC)cc4c[n+](C)c23)cc1O"
active

* * *

# maps each entry to its T/C
System: BDF1 mice, P388 leukemia ip, median survival T/C
Test: NCI In Vivo Anticancer Drug Screen. Data for tumor model P388 Leukemia (intraperitoneal) in B6D2F1 (BDF1) mice
Settings: endpoint: median survival time; dose: 100.0 mg/kg/injection; schedule: Q01DX009 (ip); vehicle: saline; higher = longer survival
Inconclusive results and toxic doses are left out.

- NC(=O)c1nc2c([nH]c1=O)CCCC2: 100 % of control
- C=CN1CCCC1=O: 90 % of control
- NC(=O)N(CCO)CCO: 100 % of control
- Cc1ccc(-n2nnc3ccccc3c2=O)cc1C: 109 % of control
- CC(C)(CCC(C)(C)NCCC#N)NCCC#N: 101 % of control
- CCCCN(S(=O)(=O)C(F)(F)F)S(=O)(=O)C(F)(F)F: 91 % of control

Value lookup for T/C; key = "O/N=c1/cc(-c2ccc(Cl)cc2)ss1"
106 % of control

Check "O=S(=O)(Oc1ccccc1)C(F)(F)C(F)(F)C(F)(F)C(F)(F)F" too.
106 % of control

And the next one, "O=[N+]([O-])c1ccccc1C=Nc1ccccc1" ?
105 % of control

Next up: "CCOC(=O)C(=CC(CC)(C(=O)OCC)C(=O)OCC)C(=O)OCC"
95 % of control

And for "CCO/C=C1\SC(=S)N(c2ccco2)C1=O" ?
116 % of control

Request: "O=c1[nH]cnc2ccnn12"
100 % of control

Another compound: CN1c2c(nc(N)[nH]c2=O)NCC1CCNc1ccc(C(=O)NC(CCC(=O)O)C(=O)O)cc1 (stereo not given)
112 % of control

Again, but for "COc1ccc(C(=O)N(N)C2CCCCC2)cc1"
105 % of control

How about this compound: "O=C(CCl)NCc1cnccn1"
108 % of control

Same read-out for "O=C(Nc1ccc(S(=O)(=O)O)cc1)c1ccc([N+](=O)[O-])cc1" ?
100 % of control

Please give the result for "C[n+]1cccc2ccccc21" too.
109 % of control

Also check CCOC(=O)C1CSC2(CCCCC2)N1 (stereo not given)
94 % of control

Same again, this time with CC(C)C1CCC2=C(CCC3C(C)(C(=O)O)CCCC23C)C1 (stereo not given)
109 % of control

"C=CCC(CC)(C(=O)O)C(=O)O" ?
90 % of control
